# System: forty-four human cancer cell lines
# ASSAY_COMMENT: Cell proliferation assay (ATPlite, 72 hours) in the 44 cell line Oncolines panel
# Format: cell-based
# APPLIED_CONDITIONS: Homo sapiens; cell line LoVo; read-out: cell panel IC50, LoVo
I'd appreciate it if you could supply IC50 values for the items below.
Supply the numeric figure in nM, leaving out any unit text.

Request: Fill in: IC50 on forty-four human cancer cell lines, entry CC(=O)Nc1cccc(-n2c(=O)n(C3CC3)c(=O)c3c(Nc4ccc(I)cc4F)n(C)c(=O)c(C)c32)c1
Response: 8

Request: Fill in: IC50 on forty-four human cancer cell lines, entry CNC(=O)c1cc(Oc2ccc(NC(=O)Nc3ccc(Cl)c(C(F)(F)F)c3)c(F)c2)ccn1
Response: 2700

---

# Test system: forty-four human cancer cell lines
# ASSAY_COMMENT: Cell proliferation assay (ATPlite, 72 hours) in the 44 cell line Oncolines panel
# Format: cell-based
# APPLIED_CONDITIONS: Homo sapiens, cell line SJCRH30; read-out: cell panel IC50, SJCRH30
TEST_READOUT: pIC50
Please note pIC50 is a logarithmic value: minus log10 of concentration in mol/L. Answer with that number alone.

Request: Report pIC50, nothing else, for this compound: CNC(=O)c1cc(Oc2ccc(NC(=O)Nc3ccc(Cl)c(C(F)(F)F)c3)c(F)c2)ccn1
Response: 4.97

---

# Test system: forty-four human cancer cell lines
# ASSAY_COMMENT: Cell proliferation assay (ATPlite, 72 hours) in the 44 cell line Oncolines panel
# Assay type: cell-based
# APPLIED_CONDITIONS: Homo sapiens, AU565, read-out: cell panel IC50, AU-565, cell line AU-565
TEST_READOUT: IC50 (nM)
Supply the numeric figure in nM, leaving out any unit text.

Request: Fill in: IC50 on forty-four human cancer cell lines, entry CC(C)C[C@H](NC(=O)[C@H](Cc1ccccc1)NC(=O)c1cnccn1)B(O)O
Response: 18

---

# TARGET_ENTITY: panel of more than 300 wild-type and mutant kinases (313 kinase panel) (Homo sapiens)
# Sequence (O60674 whole entry, change not shown): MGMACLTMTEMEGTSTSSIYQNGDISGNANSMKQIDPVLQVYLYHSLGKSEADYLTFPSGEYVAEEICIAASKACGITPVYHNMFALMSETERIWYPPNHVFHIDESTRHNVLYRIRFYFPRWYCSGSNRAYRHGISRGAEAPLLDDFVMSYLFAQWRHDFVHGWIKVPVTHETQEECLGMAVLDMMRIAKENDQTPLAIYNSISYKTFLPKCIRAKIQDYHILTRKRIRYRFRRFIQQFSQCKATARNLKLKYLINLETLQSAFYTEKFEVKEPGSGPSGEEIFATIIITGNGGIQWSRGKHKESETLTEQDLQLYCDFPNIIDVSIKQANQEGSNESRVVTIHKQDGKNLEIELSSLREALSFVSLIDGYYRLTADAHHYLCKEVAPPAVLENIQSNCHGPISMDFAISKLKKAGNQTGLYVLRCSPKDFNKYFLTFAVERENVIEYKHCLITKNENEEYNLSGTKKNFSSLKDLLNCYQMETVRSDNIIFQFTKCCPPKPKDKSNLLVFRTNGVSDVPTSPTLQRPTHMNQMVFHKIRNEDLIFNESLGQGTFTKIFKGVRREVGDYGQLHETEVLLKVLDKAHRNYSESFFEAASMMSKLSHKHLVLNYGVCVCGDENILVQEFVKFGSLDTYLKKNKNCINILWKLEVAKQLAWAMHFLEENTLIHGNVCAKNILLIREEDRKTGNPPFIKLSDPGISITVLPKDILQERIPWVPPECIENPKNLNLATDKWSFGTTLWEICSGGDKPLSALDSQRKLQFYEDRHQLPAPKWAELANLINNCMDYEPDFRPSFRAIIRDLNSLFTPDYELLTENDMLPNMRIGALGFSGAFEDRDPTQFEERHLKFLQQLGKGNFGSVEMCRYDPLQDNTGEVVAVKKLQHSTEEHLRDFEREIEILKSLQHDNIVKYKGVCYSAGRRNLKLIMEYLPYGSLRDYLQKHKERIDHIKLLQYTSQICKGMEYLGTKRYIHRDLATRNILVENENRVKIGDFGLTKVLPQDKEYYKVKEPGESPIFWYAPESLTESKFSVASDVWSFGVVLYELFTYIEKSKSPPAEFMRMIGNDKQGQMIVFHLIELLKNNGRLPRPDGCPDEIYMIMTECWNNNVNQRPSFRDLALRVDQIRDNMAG
# ASSAY_COMMENT: Kinase profiling in a biochemical assay panel (mobility shift assays and ELISA), %-inhibition at 1 μM; selectivity entropy
# APPLIED_CONDITIONS: kinase JAK2; compound at 1 μM
TEST_READOUT: %-inhibition of JAK2 (%)
Supply the numeric figure in %, leaving out any unit text.

Request: Report %-inhibition of JAK2, nothing else, for this molecule: C[C@@H](Oc1cc(-c2cnn(C3CCNCC3)c2)cnc1N)c1c(Cl)ccc(F)c1Cl [crizotinib]
Response: 98

Request: Report %-inhibition of JAK2, nothing else, for this molecule: O=S(=O)(c1cccc2cnccc12)N1CCCNCC1 [fasudil]
Response: 3.24

Request: Report %-inhibition of JAK2, nothing else, for this molecule: COc1cc2c(Nc3ccc(Br)cc3F)ncnc2cc1OCC1CCN(C)CC1 [vandetanib]
Response: 0.942

Request: Report %-inhibition of JAK2, nothing else, for this molecule: CS(=O)(=O)CCNCc1ccc(-c2ccc3ncnc(Nc4ccc(OCc5cccc(F)c5)c(Cl)c4)c3c2)o1 [lapatinib]
Response: -1.58

Request: Report %-inhibition of JAK2, nothing else, for this molecule: Cc1ccc(C(=O)Nc2ccc(CN3CCN(C)CC3)c(C(F)(F)F)c2)cc1C#Cc1cnc2cccnn12 [ponatinib]
Response: 92

Sourced from paper PMC3961306
